test system: PfAP2-HC AP2 domain (GST-tagged); assay: gcPBM binding intensity (ln(normalized median fluorescence intensity)); higher = stronger DNA binding
The full ranking holds about 25,000 sequences; the median of “ln(normalized median fluorescence intensity)” is about 9.7, and the highest 2% start at about 11. For the sample, the highest values were picked, then their nearest neighbours and some sequences at random.
MEASURED_PARAMETER: gcPBM binding intensity (ln)
The answer should be a number; do not append a unit.

Sample TACACGCATAGACACACACACACACGCATATAAATA [CACACA_site6446] — what was its gcPBM binding intensity (ln)? 11.3

TATAAATAAAGACACACACACATATAAATAAATATA [CACACA_site7155] ? 10.5

TTTTAAAAATCTATATGTACACAATACGTCTATAAA [XGTACX_site5787] ? 9.54

TTATTTATCAAAAAATGTACAAAAATATATAAACAA [XGTACX_site940] ? 9.6

TACAATTTATGACACACACACAATAATACCTATATA [CACACA_site6704] ? 10.3

GTAAAATTAAAAATAACACACAAAAAAAAAAAAAAA [CACACA_site800] ? 9.85

ACATTATGCCATAAATGTACACATACATATACACAG [XGTACX_site1330] ? 9.66

AATACAATTTATAACACACACACAAGAATACCTATA [CACACA_site6705] ? 11.1

TTTTCTTTTTTGAACTGTACGCGTAAATTTAAAAAG [XGTACX_site882] ? 9.36

---

test system: PfAP2-HC AP2 domain (GST-tagged); assay: gcPBM binding intensity (ln(normalized median fluorescence intensity)); higher = stronger DNA binding
Whole data set: some 25,000 sequences, median “ln(normalized median fluorescence intensity)” near 9.7, cut for the highest 2% near 11. The list comes from a sample in which the highest values are over-represented; it also holds close analogues and randomly drawn sequences.
MEASURED_PARAMETER: gcPBM binding intensity (ln)
The answer should be a number; do not append a unit.

Query gcPBM binding intensity (ln) on PfAP2-HC AP2 domain (GST-tagged) for AATACAATTTTTAACACACACACAATAATACAGATA [CACACA_site4823] 11.2

ACGTTTTATTTTTATTGTACTCACATTGAAATGAAT [XGTACX_site6094] ? 10

GTTACACCAACAAACACACACACACCGACACCCAAA [CACACA_site5361] ? 10.6

ACATGTGAACATTCAATGCACACGATGTAATTATAC [CACACA_site14] ? 9.84

ATTTAATACAAATACACACACAAATAAATACAGATA [CACACA_site5956] ? 10.2

AGCACCCACCAACACACACACACACCCACCCACCGA [CACACA_site368] ? 11.2

AAAAAAAAAAAATTCACACACATATAAAAAATTAAG [CACACA_site728] ? 10

TTTTACTTAAGACACACACACACAAAAAAAAAAAAA [CACACA_site6573] ? 10.8

AAAATTTAATATAATGCACACATAAAAAAAAATTCA [CACACA_site8640] ? 9.77

---

system: PfAP2-HC AP2 domain (GST-tagged); assay: gcPBM binding intensity (ln(normalized median fluorescence intensity)); higher = stronger DNA binding
Whole data set: some 25,000 sequences, median “ln(normalized median fluorescence intensity)” near 9.7, cut for the highest 2% near 11. The full list was thinned out, with the highest values kept by preference.
Could you please report measured gcPBM binding intensity (ln) for the items listed next?
The answer should be a number; do not append a unit.

Sample TATATAATATATATGACACACATATTTATATAAATA [CACACA_site4054] — what was its gcPBM binding intensity (ln)? 9.57

AAAAAAAACAGACACACACACATAAATATAAATAAA [CACACA_site6214] ? 10.5

TATATATATAGACACACACACACATATATATATATA [CACACA_site9366] ? 10.7

GCACATAAATATATGACACACACACCGATTATATAT [CACACA_site9003] ? 10.8

AAAATAAAATAAAATACACACATACATACATACAAA [CACACA_site5366] ? 10.2

---

Could you please report measured gcPBM binding intensity (ln) for the items listed next?
tested on: PfAP2-HC AP2 domain (GST-tagged); assay: gcPBM binding intensity (ln(normalized median fluorescence intensity)); higher = stronger DNA binding
The full ranking holds about 25,000 sequences; the median of “ln(normalized median fluorescence intensity)” is about 9.7, and the highest 2% start at about 11. Shown is part of a subset that was picked to be rich in the highest values.
The answer should be a number; do not append a unit.

Sample CATATAAAAGGACACACACACACATATATATATATA [CACACA_site4674] — what was its gcPBM binding intensity (ln)? 11.6

ATATTATATATATACACACACACATGCATGCACATA [CACACA_site7917] ? 10.3

AAAAATAAAATATATACATGCATATACATATTATAT [TGCATGCA_site668] ? 9.65

TTTTAAAGAAAATATTTTATCATTATTTTTTGTACT [CACACA_negctrl_site1648] ? 9.57

ATAAAAAAAAGACACACACACATATATATATATATA [CACACA_site3073] ? 10.3

---

Could you please report measured gcPBM binding intensity (ln) for the items listed next?
tested on: PfAP2-HC AP2 domain (GST-tagged); assay: gcPBM binding intensity (ln(normalized median fluorescence intensity)); higher = stronger DNA binding
Whole data set: some 25,000 sequences, median “ln(normalized median fluorescence intensity)” near 9.7, cut for the highest 2% near 11. Shown is part of a subset that was picked to be rich in the highest values.
The answer should be a number; do not append a unit.

Sample TATATAAATAGACACACACACATATAAATATAAATA [CACACA_site6503] — what was its gcPBM binding intensity (ln)? 10.4

AAAAATTCCAGACACACACACACATATAAATAAATA [CACACA_site1232] ? 11.1

AAAGGATACAGACACACACACACATATATATATATA [CACACA_site906] ? 10.8

TATATATATAGACACACACACATATAAATAAATAAA [CACACA_site444] ? 10.4

ACATAAATATATGACACACACACATATTATATATAT [CACACA_site3065] ? 11.1

---

system: PfAP2-HC AP2 domain (GST-tagged); experiment: gcPBM binding intensity (ln(normalized median fluorescence intensity)); higher = stronger DNA binding
Whole data set: some 25,000 sequences, median “ln(normalized median fluorescence intensity)” near 9.7, cut for the highest 2% near 11. The full list was thinned out, with the highest values kept by preference.
Could you please report measured gcPBM binding intensity (ln) for the items listed next?
The answer should be a number; do not append a unit.

Sample AACGAACACTATTACACACATACATACATATGTATG [CACACA_site1859] — what was its gcPBM binding intensity (ln)? 10.1

ATATAGAAAATGCATACACACTTTATAAATATATTT [CACACA_site6553] ? 9.82

CACGCATACGGACACACACACACACCGATATATATA [CACACA_site4521] ? 11

AAAAAATTTATAAAAGCACACAAAATAAAAAAAAAT [CACACA_site8420] ? 9.78

ATGTATATGATTAAATGTACGTAAACAAATTTGTAA [XGTACX_site8174] ? 9.81

GGCATACACGGACACACACACACACCGACATATATA [CACACA_site4493] ? 11.5

ATATAATATACTTATTGTACTTATTTAAAATACTAA [XGTACX_site4266] ? 9.58

TTTTAAATTTAATTTACACACTTTTCATAGCATTGA [CACACA_site3794] ? 9.61

TTTAAATCGTTAAAAACACACAAAAAAAATCAATTA [CACACA_site2519] ? 9.59

ATGTTTTATATTTTTTTTTTGTTTGCTTGTTTCCTC [CACACA_negctrl_site870] ? 9.57

AGTAACAAAAGAAAAAAATATGCAAACATATATATA [XGTACX_negctrl_site468] ? 9.65

ATAGTATACGGACACACACACACACCGATATATATA [CACACA_site5032] ? 11.2

ATTTTATATACACTTTGTACTTATTTTATTCTTCTT [XGTACX_site4200] ? 9.93

ATACACAAAATTATTAAATCAATAAATATATGGTTT [CACACA_negctrl_site353] ? 9.57

ATACAATAATATAAATGTACAAATTATATCTTAATT [XGTACX_site6004] ? 9.62

CACTTAAAAAGCTAACGTACAAATACACATATATAA [XGTACX_site1851] ? 9.66

ATTATATATGTATGGTGTACTAAGAATATTTTTTTA [XGTACX_site1950] ? 9.55

TAACAATATCTAGATACACACACATATCTCTCAATC [CACACA_site8122] ? 10.4

AAAGATGATAAAATATGTACACACAGTTTATACATT [XGTACX_site8703] ? 9.95

meta.source: the supplement of paper PMC11417369
